Reported inhibition is given for each of the following compounds.
- ASSAYED_SYSTEM: Tyrosine-protein kinase Lyn (Homo sapiens);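 further: kinase tested as its LYN B splice variant, values given as mean percent inhibition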
- CONDITION_NOTES: at 1 µM
- Description: GSK_PKIS: LYN B (splice variant) mean inhibition at 1 uM [Nanosyn]
Field format: number, assumed %, no unit text.

Study these solved cases before continuing.
Measured inhibition of COc1cc(C)c(NC(=O)CN(C)C)cc1Nc1nc(Nc2cccc(F)c2C(N)=O)c2cc[nH]c2n1 : -0.14

Measured inhibition of CCN1CCC(CC(=O)Nc2n[nH]c3nc(-c4cccs4)c(Br)cc23)CC1 : 1.82

Measured inhibition of Cc1ccc(NC(=O)c2ccnc(N3CCCC3)c2)cc1-c1ccc(C(=O)NCC2CC2)cc1 : 5.14

Measured inhibition of COc1ccc(-c2ccncc2)cc1C(N)=O : 4.65

Now for another entry.
Measured inhibition of CC(C)=Cc1cccc2c1/C(=N/Nc1ccc(S(N)(=O)=O)cc1)C(=O)N2 : 29.9

Where do the numbers come from? From ChEMBL document CHEMBL1961873.
